Test system: HepG2
Experiment: cell viability relative to DMSO; higher = less toxic
Settings: 72 h; 10000 nM
Hi there, I'd appreciate the recorded cell viability for every entry that follows.
Write it as a number; the unit % goes unstated.

Entry NC(=O)c1ccc(N(C(N)=O)c2c(F)cccc2F)nc1-c1ccc(F)cc1F : reported cell viability = ?
108

What do you get for COC(=O)c1c(C)[nH]c(C)c1C(=O)c1ccccc1Cc1ccccc1 ?
104

Queued: CCn1cnc(C(=O)NC)c1C(=O)NC
111

What do you have for CNC(=O)c1cc(Oc2ccc(NC(=O)Nc3ccc(Cl)c(C(F)(F)F)c3)c(F)c2)ccn1 ?
16.5

Subsequent entry: NC(=O)c1ccc(F)c2c1C[C@@H](N(C1CCC1)C1CCC1)CO2
100

And then CCC(=O)[C@@]1(C)[C@H](C)C[C@H]2[C@@H]3CCC4=CC(=O)C=C[C@]4(C)[C@H]3[C@@H](O)C[C@@]21C [rimexolone] , what is it?
92.8

Now consider CNC[C@H](O)c1cccc(O)c1 and answer again.
111

And for N=C(N)NC(=N)NCCc1ccccc1 ?
85.8

Try this compound next: O=[N+]([O-])c1cn2c(n1)OC[C@@H](OCc1ccc(OC(F)(F)F)cc1)C2
100

What do you get for O=C(CCCN1CCC2(CC1)C(=O)N(Cc1cccc(F)c1)CN2c1ccccc1)c1ccc(F)cc1 ?
44.4

Another compound: CCO[C@@H]1OC(=O)C[C@@H]1NC(=O)[C@@H]1CCCN1C(=O)[C@@H](NC(=O)c1ccc(N)c(Cl)c1)C(C)(C)C
92.2

Same again, this time with COc1cc2c(cc1OC)-c1c/c(=N\c3c(C)cc(C)cc3C)n(C)c(=O)n1CC2
84.1

What about this compound? Cc1c(-c2ccccc2F)[nH]c(N)c1C#N
116

Same thing, different compound: Cn1cnc2c1c(=O)[nH]c(=O)n2C
95.6

Queued: CNC(=O)c1cnn(-c2nc(N)c3ncn([C@@H]4O[C@H](CO)[C@@H](O)[C@H]4O)c3n2)c1
117

Follow-up item: CC(=O)N[C@@H](CSSC[C@H](NC(C)=O)C(=O)O)C(=O)O
98

# repeat for Nc1nc(/C(=C/CC(=O)O)C(=O)N[C@@H]2C(=O)N3C(C(=O)O)=CCS[C@H]23)cs1
91

What do you have for Nc1nc(N)nc(-c2cc(Cl)ccc2Cl)n1 ?
105

* * *

Tested on: U2OS
Assay: relative viability EC50 (midpoint between 100% and the lowest measured viability); higher = less toxic
Conditions: 72 h
measurement_label: relative viability EC50

Which value of relative viability EC50 has been reported for Cc1ccc(NC(=O)c2ccc(CN3CCN(C)CC3)cc2)cc1Nc1nc(-c2cccnc2)cs1 [masitinib] in the records?
> 10 µM

And for CCCCCCCCCCCCCCCCCCCCCC(=O)O [AGP-103] ?
> 10 µM

For CNC[C@H](O)c1cccc(O)c1 [phenylephrine] then?
> 10 µM

Entry to check: O=C1CNC(=O)CN1 [piperazinedione]
> 10 µM

Here is the next molecule: Cc1c(-c2cnccn2)ssc1=S [oltipraz]
> 10 µM

Quick one: COc1ccc(CCNCC(O)COc2cccc(C)c2)cc1OC (centres undefined) [bevantolol]
> 10 µM

Would you mind doing NC(=O)c1ccc(N(C(N)=O)c2c(F)cccc2F)nc1-c1ccc(F)cc1F [VX-702] as well?
> 10 µM

Another molecule to check: CC(=O)N(CC(O)CN(C(C)=O)c1c(I)c(C(=O)NCC(O)CO)c(I)c(C(=O)NCC(O)CO)c1I)c1c(I)c(C(=O)NCC(O)CO)c(I)c(C(=O)NCC(O)CO)c1I (centres undefined) [iodixanol]
> 10 µM

What about this molecule? Oc1ccc2c3c1O[C@H]1[C@@H](O)CC[C@@]4(O)[C@@H](C2)N(CC2CCC2)CC[C@]314 [nalbuphine]
> 10 µM

Nc1nc(/C(=C/CC(=O)O)C(=O)N[C@@H]2C(=O)N3C(C(=O)O)=CCS[C@H]23)cs1 [ceftibuten] , same question.
> 10 µM

Moving on to the next molecule: CC(C)c1ccc(CC(=O)N2CCC[C@@H](c3cccc(OC(C)(C)C(=O)O)c3)C2)cc1
> 10 µM

// query: CNc1cc2[nH]c(=O)n(-c3ccc(NC(=O)NS(=O)(=O)c4ccc(Cl)s4)cc3)c(=O)c2cc1F [elinogrel]
> 10 µM

Same lookup for CC#CC(=O)N1CC[C@@H](n2c(=O)n(-c3ccc(Oc4ccccc4)cc3)c3c(N)ncnc32)C1 [ONO-4059] , please.
> 10 µM

Likewise for O=C(c1ccc(C(=O)N2CCC(N3CCCC3)CC2)c(Nc2ccccc2)c1)N1CCC(N2CCCC2)CC1 [UNC1215] ?
> 10 µM

And what about the molecule CO[C@@]1(NC(=O)Cc2cccs2)C(=O)N2C(C(=O)O)=C(COC(N)=O)CS[C@@H]21 [cefoxitin] ?
> 10 µM

How about this molecule: COc1ccc(C2CC(c3c(O)cc(C)oc3=O)=NCCS2)c(OC)c1 (centres undefined)
1.1 µM

Moving on to the next molecule: CO[C@@H](C(=O)N1Cc2[nH]nc(NC(=O)c3ccc(N4CCN(C)CC4)cc3)c2C1)c1ccccc1 [danusertib]
1.35 µM

Now try O=C(O)c1cc(O)c2c(Cl)cc(Cl)cc2n1 [5,7-dichlorokynurenic-acid] .
> 10 µM

Entry C[C@H]1[C@@H](O)O[C@@H]2O[C@@]3(C)CC[C@H]4[C@H](C)CC[C@@H]1[C@@]24OO3 [ARTENIMOL] please
1.57 µM

* * *

System: HepG2
Assay: drug sensitivity score (DSS) for viability; higher = more toxic; extreme values may be limits of the assay
Details: 72 h
measurement_label: drug sensitivity score
Keep it simple and answer with nothing but the number.

What measured drug sensitivity score goes with COc1cc2c(cc1OC)-c1c/c(=N\c3c(C)cc(C)cc3C)n(C)c(=O)n1CC2 [trequinsin] ?
0.9

Same thing, different compound: N#CSc1cc(SC#N)c(N)nc1N [PR-619]
1.9

Record: CC(C)CC(N)=O [isovaleramide]
0

Next: FC(F)c1nc2ccccc2n1-c1nc(N2CCOCC2)nc(N2CCOCC2)n1 [ZSTK-474]
6.9

Try this compound next: CNC(=O)c1cnn(-c2nc(N)c3ncn([C@@H]4O[C@H](CO)[C@@H](O)[C@H]4O)c3n2)c1 [regadenoson]
0

Item: Cn1c(=O)n(-c2ccc(C(C)(C)C#N)cc2)c2c3cc(-c4cnc5ccccc5c4)ccc3ncc21 [NVP-BEZ235]
7.5

And then CC(C)N(CCCNC(=O)Nc1ccc(C(C)(C)C)cc1)C[C@H]1O[C@@H](n2ccc3c(N)ncnc32)[C@H](O)[C@@H]1O , what is it?
0

Now the same for Cc1c(-c2cnccn2)ssc1=S [oltipraz]
0

Now consider CCNC(=O)NS(=O)(=O)c1sc(CC(C)C)cc1-c1ccc(Cn2c(-c3ccccc3)nc(OC)c2C=O)cc1 [AVE-0991] .
0

Try this compound next: CC(=O)NCCCS(=O)(=O)O [acamprosate]
0

Ok, now COc1cc(C[C@H](C)[C@H](C)Cc2ccc3c(c2)OCO3)ccc1O [macelignan]
3.3

Then this compound: c1ccc(N2CCN(Cc3nc4ccccc4[nH]3)CC2)nc1 [ABT-724]
0

Try this compound next: CNC(=O)c1cc(Oc2ccc(NC(=O)Nc3ccc(Cl)c(C(F)(F)F)c3)c(F)c2)ccn1 [regorafenib]
9.3

Another compound: CCN(Cc1ccc(Cl)nc1)/C(=C/[N+](=O)[O-])NC [nitenpyram]
0

Now try CC1=C(C)C(=O)C(C(CCCCCC(=O)O)c2ccccc2)=C(C)C1=O (centres undefined) [seratrodast] .
0

Now consider O=C(O)CCc1c[nH]c2ccccc12 and answer again.
0

Here is the next compound: NC[C@@H]1CC[C@@H](N)[C@@H](O[C@H]2[C@H](O)[C@@H](O[C@H]3O[C@H](CO)[C@@H](O)[C@H](N)[C@H]3O)[C@H](N)C[C@@H]2N)O1 [dibekacin]
0

// query: Cc1cc(O)c(C(C)C)cc1Cl [chlorothymol]
0

Same question for O=C(Nc1cccc2c(=O)cc(-c3nnn[nH]3)oc12)c1ccc(OCCCCc2ccccc2)cc1 [pranlukast] please.
0

* * *

For each entry below, report its cell viability value.
Test system: Vero E6
Experiment: cell viability relative to DMSO; higher = less toxic
Settings: 72 h; 10000 nM
State the answer as a number, implicitly in %.

What value of cell viability has been reported for the following molecule? CCNC(=O)NS(=O)(=O)c1sc(CC(C)C)cc1-c1ccc(Cn2c(-c3ccccc3)nc(OC)c2C=O)cc1
96

Then CN1CCC(c2c[nH]c3ccc(O)cc23)CC1 ?
101

Also need Cc1ccc(NC(=O)C(C)C)cc1C1CCN(Cc2ccc(Oc3ccc(F)c(F)c3)cc2)CC1 , thanks.
75.3

And what about the molecule Cc1ccc(C)c(OCCCC(C)(C)C(=O)O)c1 ?
95.9

Now try COC(=O)C1=C(C)NC(C)=C(C(=O)NCCCN2CCC(c3ccccc3)(c3ccccc3)CC2)C1c1ccc([N+](=O)[O-])cc1 (stereo unspecified) .
74.3

O=C(O)CCCNC(=O)c1cccnc1 ?
98.4
